Reported Ratio Ki values are given for each entry in this list.
organism: Homo sapiens; assay: Selectivity index, ratio of Ki for inhibition of human CA1 to Ki for inhibition of human CA12
Number, no unit, nothing else.

>  <ENTRY_SMILES>
NCCCN(CCc1ccccc1)CC(=O)N(CCc1ccc(S(N)(=O)=O)cc1)Cc1ccco1

>  <Ratio Ki>
5.8

$$$$

Attention now shifts to the item below.
Value of Ratio Ki reported for the compound CCCCCCCCN(CCCCCCCC)CC(=O)N(CCc1ccc(S(N)(=O)=O)cc1)Cc1ccccc1 is 9.5

----------
species: Homo sapiens; assay: Selectivity index, ratio of Ki for inhibition of human CA2 to Ki for inhibition of human CA4
Reported Ratio Ki values are given for each entry in this list.
Provide a numeric answer; units are not to be included.

Some entries whose results are on file:
>  <ENTRY_SMILES>
NS(=O)(=O)c1ccc(CCN(Cc2ccc3ccccc3c2)C(=O)CN(CCC(=O)O)CCc2ccccc2)cc1

>  <DATA_VALUE>
0.1

$$$$
>  <ENTRY_SMILES>
CCCCCCCC/C=C\CCCCCCCCNC(=O)CCN(CCc1ccccc1)CC(=O)N(CCc1ccc(S(N)(=O)=O)cc1)Cc1ccco1

>  <DATA_VALUE>
0.07

$$$$
>  <ENTRY_SMILES>
NS(=O)(=O)c1ccc(CCNCCc2ccccc2)cc1

>  <DATA_VALUE>
0.02

$$$$

Lab note: measured Ratio Ki of CCCCCCN(CCCCCC)CCC(=O)N(CCc1ccc(S(N)(=O)=O)cc1)Cc1ccco1 was 0.02

Ratio Ki measured on N#CCCN(CCc1ccccc1)CC(=O)N(CCC#N)CCc1ccc(S(N)(=O)=O)cc1 = 0.001

The reported value for NS(=O)(=O)c1ccc(CCN(CCc2ccccc2)C(=O)CN(CCC(=O)O)CCc2ccccc2)cc1 in terms of Ratio Ki is 0.03

For NS(=O)(=O)c1ccc(CCNCc2ccc(F)cc2)cc1 the compound record lists Ratio Ki as 0.06

Briefly, Ratio Ki measured for NS(=O)(=O)c1ccc(CCNCc2ccc([N+](=O)[O-])cc2)cc1 : 0.07

Item: CCN(CC)CC(=O)N(CCc1ccc(S(N)(=O)=O)cc1)Cc1ccccc1 | Ratio Ki: 0.002

Provenance of the data: ChEMBL document CHEMBL4613327
